# Test system: HCT-116
# assay details: NCI tumour cell line growth inhibition, 48 h
Calls of active or inactive are those of the source. Rule as the data show it: active = GI50 up to about 1.1 µM and inactive = higher.
Respond only with the outcome that fits, drawn from TRUE = active, FALSE = inactive

Any idea what this test logged for CCOc1cc2oc(C)cc(=O)c2c(OC)c1/C=N/c1ccc(Cn2c(C)nc3ccccc32)cc1 ?
FALSE

Any idea what this test logged for O=C(C=P(c1ccccc1)(c1ccccc1)c1ccccc1)c1ccc(-c2cccs2)cc1 ?
FALSE

Any idea what this test logged for O/N=C/c1cc2c(cc1Br)OCO2 ?
FALSE

Any idea what this test logged for COc1cc(S(=O)(=O)Nc2ccc(-c3csc(N4C(=O)C(C)SC4c4cccc(Oc5ccccc5)c4)n3)cc2)ccc1Cl (stereo not given) ?
FALSE

Any idea what this test logged for O=C(/C=C/c1ccccc1)Oc1ccc(C(=O)/C=C/c2ccc(Cl)cc2)cc1 ?
FALSE

Any idea what this test logged for CN(C)CCNc1ccc2ncnc3c2c1C(=O)c1ccccc1-3 ?
TRUE

Any idea what this test logged for S=C(Nc1cccc(C2(N3CCCCC3)CCCCC2)c1)Nc1cccc(C2(N3CCCCC3)CCCCC2)c1 ?
FALSE

Any idea what this test logged for N#CC(C#N)C1CN2CCC1CC2 (stereo not given) ?
FALSE

Any idea what this test logged for CO[C@H]1C[C@H](n2cc(C)c(=O)[nH]c2=O)O[C@@H]1CO ?
FALSE

Any idea what this test logged for Cc1ccc(NCCN(C)C)c2c(=O)c3cc(O)ccc3sc12 ?
FALSE

---

Please go through the items and note down their GI50.
# Tested on: SK-MEL-28
# assay details: NCI tumour cell line growth inhibition, 48 h
The source made the active and inactive calls. Cut-off read from the data, not from the text of the source: active = GI50 up to about 1.1 µM and inactive = higher.

What the record says about Cc1nc(-n2nc(-c3ccccc3)cc2-c2ccccc2)sc1C(=O)/C=C/c1ccc(Cl)cc1 : GI50 is 16.9 µM (inactive)

What the record says about C=C[C@@H](C)[C@H](NS(=O)(=O)c1ccc(C)cc1)C(=O)OCC : GI50 is 35.9 µM (inactive)

What the record says about O=c1[nH]c2c(nc1NC13CC4CC(CC(C4)C1)C3)c(=O)oc1ccccc12 : GI50 is > 100 µM (inactive)

What the record says about CCOC(=O)CC[C@@H](NC(=O)c1ccc(NCc2ccc3nc(OC)c(OC)nc3c2)cc1)C(=O)OCC : GI50 is 16.1 µM (inactive)

What the record says about CC(=O)/C(=C/NC(=S)c1cccnc1)C(=O)Nc1ccccc1C : GI50 is > 100 µM (inactive)

---

# System: SF-295
# assay details: NCI tumour cell line growth inhibition, 48 h
Calls of active or inactive are those of the source. Rule as the data show it: active = GI50 up to about 1.1 µM and inactive = higher.
Please go through the items and note down their GI50.

What the record says about CC([C@H]1CCC2C3CCC4CC5(CC[C@]4(C)C3CC[C@@]21C)c1ccccc1C(=O)N5C)N(C)C (some centres undefined) : GI50 is 18.7 µM (inactive)

What the record says about N#CC(C(=O)CCC(=O)Nc1ccc(Cl)cc1)c1ccc(Cl)cc1 (centres undefined) : GI50 is > 100 µM (inactive)

What the record says about S=C1NC2=C(COc3ccccc32)C(c2ccc(Cl)cc2)N1 (centres undefined) : GI50 is 13.8 µM (inactive)

What the record says about Cc1ccc(S(=O)(=O)N/N=C/c2oc(-c3ccccc3Cl)c(-c3ccccc3Cl)c2[N+](=O)[O-])cc1 : GI50 is > 100 µM (inactive)

What the record says about COc1cc(S(=O)(=O)Nc2ccc(-c3csc(N4C(=O)C(C)SC4c4cccc(Oc5ccccc5)c4)n3)cc2)ccc1Cl (centres undefined) : GI50 is 46.2 µM (inactive)

What the record says about CC#CC(=O)Nc1ccccc1CC(c1c[nH]c2ccccc12)c1c[nH]c2ccccc12 : GI50 is 20.3 µM (inactive)

What the record says about COc1ccc(C(=O)C(c2ccc(OC)cc2)C2OC(=O)C(Cl)=C2Cl)cc1 (centres undefined) : GI50 is > 100 µM (inactive)

What the record says about Cc1ccc(S(=O)(=O)NC(=O)NCC(=O)NCC(=O)O)cc1 : GI50 is > 100 µM (inactive)

What the record says about Cc1nc2ccccc2c(=O)n1NC(=S)Nc1cccc(Cl)c1 : GI50 is > 100 µM (inactive)
